Every entry's value here was drawn from patent US20180194862A1.

Kindly state Kd for each of the entries shown.
# target_desc: T1, human mesothelin (human, UniProt Q13421 296-580, limits assumed)
# T1 construct: also called Human MSLN
# assay_explanation: SPR

Lookup: // lookup Kd for HuAM7 (antibody, V domains shown, fully human antibody) VH: EVQLVQSGAEVKKPGASVKVSCKASGDTFNRYYVHWVRQAPGQGLEWMGIINPSGVSTTYAQKFQGRVTMTRDTSTSTVYMELSSLRSEDTAVYYCAEVRGSGYNYFGMDVWGQGTLVTVSS VL: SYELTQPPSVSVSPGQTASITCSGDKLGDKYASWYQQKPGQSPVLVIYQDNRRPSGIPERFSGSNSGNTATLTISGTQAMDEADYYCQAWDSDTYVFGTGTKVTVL
Found: ≤ 0.39 nM

Lookup: Here is the next binder: HuAM5 (antibody, V domains shown, fully human antibody) VH: EVQLVQSGAEVKKPGASVKVSCKASGDTFNRYYVHWVRQAPGQGLEWMGIINPSGVSTTYAQKFQGRVTMTRDTSTSTVYMELSSLRSEDTAVYYCAEVRGSGYNYFAMDVWGQGTLVTVSS VL: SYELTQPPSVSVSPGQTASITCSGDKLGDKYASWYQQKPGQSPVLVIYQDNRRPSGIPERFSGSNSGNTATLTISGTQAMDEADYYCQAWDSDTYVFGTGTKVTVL
Found: ≤ 0.46 nM

Lookup: Then what about the binder HuAM18 (antibody, V domains shown, fully human antibody) VH: EVQLVQSGAEVKKPGASVKVSCKASGDTFNRYYVHWVRQAPGQGLEWMGIINPSGVSTTYAQKFQGRVTMTRDTSTSTVYMELSSLRSEDTAVYYCAETRGSGYNYFGMDVWGQGTLVTVSS VL: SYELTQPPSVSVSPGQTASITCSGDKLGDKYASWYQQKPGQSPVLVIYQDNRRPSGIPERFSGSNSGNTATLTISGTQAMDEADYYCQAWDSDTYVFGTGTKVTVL ?
Found: ≤ 0.66 nM
